The origin of these recorded values is patent US20250376519A1.

Target: T1, human DLL3 (ACRO, DLL3-H52H4) (human, UniProt Q9NYJ7 27-492)
T1 construct: Bought
T1 sequence: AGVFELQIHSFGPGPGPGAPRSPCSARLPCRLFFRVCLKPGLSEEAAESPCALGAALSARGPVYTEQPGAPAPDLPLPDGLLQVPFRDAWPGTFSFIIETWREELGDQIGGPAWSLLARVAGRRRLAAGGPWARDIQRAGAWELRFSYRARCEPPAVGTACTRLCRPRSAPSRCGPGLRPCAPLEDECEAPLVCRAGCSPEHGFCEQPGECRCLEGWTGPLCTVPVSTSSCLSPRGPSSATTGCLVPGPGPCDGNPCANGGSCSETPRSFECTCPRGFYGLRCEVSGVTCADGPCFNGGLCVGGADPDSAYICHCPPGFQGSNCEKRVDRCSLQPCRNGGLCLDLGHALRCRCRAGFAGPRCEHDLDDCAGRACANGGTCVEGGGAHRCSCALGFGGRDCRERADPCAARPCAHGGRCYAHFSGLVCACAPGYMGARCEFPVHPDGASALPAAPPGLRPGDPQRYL
Experiment: SPR Biacore 8K, Ab captured on Protein A
Endpoint label: log10 of Kd (log10 of the value in pM)

M98CH1 (antibody, human IgG1, kappa, V domains shown, chimeric antibody of mAb98, human IgG1/kappa; also called M98CHI) VH: EVQLVESGGGLVKPGGSLKLSCAASGFTFSDYGIHWVRQAPEKGLEWVAYISSGGYTIYYADTVKGRFTISRDNAKNTLFLQMTSLRSEDTAMYYCARGDYDDIFYTMDYWGQGTSVTVSS VL: DIQMTQTTSSLSASLGDRVTISCRASRDITKFLNWYQQKPDGTVKLLIYYTSRLHSGVPSRFSGSGSGTDYSLTISNLDQEDIATYFCQQGNTLPWTFGGGTKLDIKR	2.63
hu30L1H1 (antibody, human IgG1, kappa, V domains shown) VH: EVQLVQSGAEVKKPGASVKVSCKASGYTFTDYYMNWVRQAPGQSLEWMGIINPYNGDTSYNQKFRGRVTITVDKSASTAYMELSSLRSEDTAVYYCARYHYGPHLEGYFDVWGQGTTVTVSS VL: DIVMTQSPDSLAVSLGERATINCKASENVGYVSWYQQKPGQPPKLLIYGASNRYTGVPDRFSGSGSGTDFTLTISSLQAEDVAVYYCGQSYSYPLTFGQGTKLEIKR	2.96
hu30L5H8 (antibody, human IgG1, kappa, V domains shown) VH: EVRLVQFGAVVKKPGASVKVSCKASGYTFTDYYMNWVRQAPGQSLEWMGIINPYTGDTSYNQKFRGRVTLTVDKSSSTAYMELSSLRSEDTAVYYCARYHYGPHLEGYFDVWGQGTTVTVSS VL: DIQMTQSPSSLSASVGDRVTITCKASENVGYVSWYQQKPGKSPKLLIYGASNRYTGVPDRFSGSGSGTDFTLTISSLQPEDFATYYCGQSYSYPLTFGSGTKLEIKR	3.40
hu98L3H1 (antibody, human IgG1, kappa, V domains shown) VH: EVQLVESGGGLVQPGGSLRLSCAASGFTFSDYGIHWVRQAPGKGLEWVAYISSGGYTIYYADTVKGRFTISRDNAKNSLYLQMNSLRAEDTAVYYCARGDYDDIFYTMDYWGQGTTVTVSS VL: DIQMTQSPSSLSASVGDRVTITCRASRDITKFLNWYQQKPGGAVKLLIYYTSRLHSGVPSRFSGSGSGTDYTLTISSLQPEDFATYYCQQGNTLPWTFGGGTKVEIKR	2.37
hu30L3H1 (antibody, human IgG1, kappa, V domains shown) VH: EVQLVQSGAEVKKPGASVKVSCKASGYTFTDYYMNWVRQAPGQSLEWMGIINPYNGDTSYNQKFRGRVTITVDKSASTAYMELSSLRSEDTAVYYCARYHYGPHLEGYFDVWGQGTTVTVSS VL: DIVMTQSPKSLAVSLGERATINCKASENVGYVSWYQQKPGQSPKLLIYGASNRYTGVPDRFSGSGSATDFTLTISSLQAEDVAVYHCGQSYSYPLTFGQGTKLEIKR	2.56
hu110L1H3 (antibody, human IgG1, kappa, V domains shown) VH: EVQLVQSGAEVKKPGASVKVSCKTSGYTFTDYYMNWVRQAPGQSLEWMGIINPYQGGTSYTQKFKGRVTITVDKSASTAYMELSSLRSEDTAVYYCARHFYDSSYLTYSTMDYWGQGTTVTVSS VL: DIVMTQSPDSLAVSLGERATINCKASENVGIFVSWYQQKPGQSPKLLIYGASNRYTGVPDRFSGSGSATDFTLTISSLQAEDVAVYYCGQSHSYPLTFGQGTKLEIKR	1.93
hu6L2H5 (antibody, human IgG1, kappa, V domains shown) VH: EVQLVQSGSELKKPGASVKVSCKASGYTFTDYYMNWVRQAPGQGLEWMGIINPYSGVTIYNHKFKGRFVLSVDKSVSTAYLQISSLKAEDTAVYYCARQDSLLDYAMDYWGQGTTVTVSS VL: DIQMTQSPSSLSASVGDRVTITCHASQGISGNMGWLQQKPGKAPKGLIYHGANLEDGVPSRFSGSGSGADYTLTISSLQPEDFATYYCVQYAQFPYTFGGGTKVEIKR	2.99
hu6L3H3 (antibody, human IgG1, kappa, V domains shown) VH: EVQLVQSGAEVKKPGASVKVSCKASGYTFTDYYMNWVRQAPGQRLEWIGIINPYSGVTIYNHKFKGRATLTVDKSANTAYMELSSLRSEDTAVYYCARQDSLLDYAMDYWGQGTTVTVSS VL: DIQMTQSPSSLSASVGDRVTITCHASQGISGNMGWLQQKPGKSFKGLIYHGANLEDGVPSRFSGSGSGADYTLTISSLQPEDFATYYCVQYAQFPYTFGGGTKVEIKR	3.27
hu6L2H1 (antibody, human IgG1, kappa, V domains shown) VH: EVQLVQSGAEVKKPGASVKVSCKASGYTFTDYYMNWVRQAPGQRLEWMGIINPYSGVTIYNHKFKGRVTITVDKSASTAYMELSSLRSEDTAVYYCARQDSLLDYAMDYWGQGTTVTVSS VL: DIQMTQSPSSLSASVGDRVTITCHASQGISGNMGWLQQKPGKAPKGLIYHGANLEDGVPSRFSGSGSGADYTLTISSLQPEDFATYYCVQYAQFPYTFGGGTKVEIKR	3.34
hu30L4H9 (antibody, human IgG1, kappa, V domains shown) VH: EVRLVQSGAEVKKPGASVKVSCKASGYTFTDYYMNWVRQAPGQSLEWIGIINPYTGDTSYNQKFRGRATLTVDKSASTAYMELSSLRSEDTAVYYCARYHYGPHLEGYFDVWGQGTTVTVSS VL: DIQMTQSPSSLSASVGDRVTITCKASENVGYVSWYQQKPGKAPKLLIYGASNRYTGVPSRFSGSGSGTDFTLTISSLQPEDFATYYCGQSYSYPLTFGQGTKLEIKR	3.41
